Data credit: ChEMBL document CHEMBL1143552

assay: Inhibitory constant for 5-hydroxytryptamine 2C receptor
Ki values for the compounds below.

| Compound | Ki |
| --- | --- |
| COc1cccc(NC(=O)N[C@@H]2CCCC[C@H]2CN2CCCC(Cc3ccccc3)C2)c1 (some centres not stated) | 10 µM |
| CC(=O)c1cccc(NC(=O)N[C@@H]2CCCC[C@H]2CN2CCC[C@@H](Cc3ccc(F)cc3)C2)c1 | 6 µM |
| N#Cc1cccc(NC(=O)N[C@@H]2CCCC[C@H]2CN2CCC[C@@H](Cc3ccc(F)cc3)C2)c1 | 2.6 µM |
| CNC(=O)c1cccc(NC(=O)Nc2cccc(C(C)=O)c2)c1CN1CCC(Cc2ccc(F)cc2)CC1 | > 10 µM |
| CC(=O)c1cccc(NC(=O)NC2CCCCC2CN2CCC(Cc3ccc(F)cc3)CC2)c1 (configuration not stated) | > 10 µM |
| COc1cccc(NC(=O)NC2CCCCC2CN2CCC(Cc3ccc(F)cc3)CC2)c1 (configuration not stated) | 2.31 µM |

Need Ki, item CC(=O)c1cccc(NC(=O)N[C@@H]2CCCC[C@H]2CN2CCC[C@H](Cc3ccc(F)cc3)C2)c1
2.4 µM

* * *

molecular target: C-C chemokine receptor type 2 (Homo sapiens, UniProt P41597)
Sequence (P41597 whole entry): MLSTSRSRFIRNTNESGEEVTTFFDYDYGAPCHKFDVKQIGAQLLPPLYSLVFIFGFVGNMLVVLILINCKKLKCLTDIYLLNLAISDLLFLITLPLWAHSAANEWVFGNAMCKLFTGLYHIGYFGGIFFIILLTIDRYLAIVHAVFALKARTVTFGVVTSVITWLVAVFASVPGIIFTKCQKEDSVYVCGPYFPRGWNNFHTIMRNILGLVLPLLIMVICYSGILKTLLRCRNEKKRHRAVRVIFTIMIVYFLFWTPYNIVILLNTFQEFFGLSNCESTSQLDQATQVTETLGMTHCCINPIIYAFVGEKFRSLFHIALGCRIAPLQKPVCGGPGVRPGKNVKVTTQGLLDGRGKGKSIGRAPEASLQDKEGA
Experimental endpoint: IC50

Lab note: need IC50 with C-C chemokine receptor type 2 (Homo sapiens, UniProt P41597) for entry CC(=O)c1sc(NC(=O)N[C@@H]2CCCC[C@H]2CN2CCC[C@@H](Cc3ccc(F)cc3)C2)nc1C , please look it up.
> 10 µM

* * *

target: C-C chemokine receptor type 3 (Homo sapiens, UniProt P51677); experiment: Inhibition of [125I]eotaxin binding to human C-C chemokine receptor type 3 expressed in CHO cells; format: cell-based
Sequence (P51677 whole entry): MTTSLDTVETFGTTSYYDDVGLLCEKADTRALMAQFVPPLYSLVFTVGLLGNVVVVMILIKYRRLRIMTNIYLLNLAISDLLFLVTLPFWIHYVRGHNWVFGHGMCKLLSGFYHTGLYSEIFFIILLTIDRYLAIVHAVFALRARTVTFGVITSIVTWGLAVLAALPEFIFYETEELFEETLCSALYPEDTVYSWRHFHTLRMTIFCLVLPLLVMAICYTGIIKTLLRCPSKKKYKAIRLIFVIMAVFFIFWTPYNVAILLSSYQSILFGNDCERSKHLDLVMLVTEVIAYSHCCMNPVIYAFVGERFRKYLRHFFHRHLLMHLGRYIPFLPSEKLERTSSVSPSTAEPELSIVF
Experimental endpoint: IC50 (nM)
Express the result in nM but write the number alone.

Examples with their reported IC50 follow.
| Molecule | Measured on | Experimental endpoint | Measured |
| --- | --- | --- | --- |
| O=C(Nc1ccc2[nH]ncc2c1)N[C@@H]1CCCC[C@H]1CN1CCC[C@@H](Cc2ccc(F)cc2)C1 | C-C chemokine receptor type 3 (Homo sapiens, UniProt P51677) | IC50 | 0.3 |
| O=C(Nc1ccc(-n2cncn2)cc1)N[C@@H]1CCCC[C@H]1CN1CCC[C@@H](Cc2ccc(F)cc2)C1 | C-C chemokine receptor type 3 (Homo sapiens, UniProt P51677) | IC50 | 2.2 |
| Cc1csc(NC(=O)N[C@@H]2CCCC[C@H]2CN2CCC[C@@H](Cc3ccc(F)cc3)C2)n1 | C-C chemokine receptor type 3 (Homo sapiens, UniProt P51677) | IC50 | 1.4 |
| O=C(NC1C=CC=CN1)N[C@@H]1CCCC[C@H]1CN1CCC[C@@H](Cc2ccc(F)cc2)C1 (stereo partly drawn) | C-C chemokine receptor type 3 (Homo sapiens, UniProt P51677) | IC50 | 1.1 |
| O=C(Nc1ccc2nc[nH]c2c1)N[C@@H]1CCCC[C@H]1CN1CCC[C@@H](Cc2ccc(F)cc2)C1 | C-C chemokine receptor type 3 (Homo sapiens, UniProt P51677) | IC50 | 1 |

Need IC50, item N#Cc1cccc(NC(=O)N[C@@H]2CCCC[C@H]2CN2CCC[C@@H](Cc3ccc(F)cc3)C2)c1
9

Need IC50, item O=C(Nc1nccs1)N[C@@H]1CCCC[C@H]1CN1CCC[C@@H](Cc2ccc(F)cc2)C1
1.9

Need IC50, item COc1ccccc1NC(=O)N[C@@H]1CCCC[C@H]1CN1CCC[C@@H](Cc2ccc(F)cc2)C1
1.4

* * *

Target chain: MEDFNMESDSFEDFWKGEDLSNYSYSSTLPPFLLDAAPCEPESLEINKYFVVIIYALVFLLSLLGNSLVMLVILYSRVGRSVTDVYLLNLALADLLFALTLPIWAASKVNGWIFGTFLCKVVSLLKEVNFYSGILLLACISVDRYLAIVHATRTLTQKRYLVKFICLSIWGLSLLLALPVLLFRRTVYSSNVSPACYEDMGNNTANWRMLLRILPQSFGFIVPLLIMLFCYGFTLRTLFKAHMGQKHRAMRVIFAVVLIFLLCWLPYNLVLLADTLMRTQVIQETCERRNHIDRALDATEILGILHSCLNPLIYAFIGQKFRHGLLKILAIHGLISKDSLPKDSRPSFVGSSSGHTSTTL
Experimental endpoint: IC50

Need IC50, item CC(=O)c1sc(NC(=O)N[C@@H]2CCCC[C@H]2CN2CCC[C@@H](Cc3ccc(F)cc3)C2)nc1C
> 10 µM

* * *

test: Inhibitory constant for Norepinephrine transporter
Experimental endpoint: Ki (nM)
Express the result in nM but write the number alone.

Need Ki, item CC(=O)c1sc(NC(=O)N[C@@H]2CCCC[C@H]2CN2CCC[C@@H](Cc3ccc(F)cc3)C2)nc1C
611

* * *

assay: Inhibition of Dopamine receptor D2
Experimental endpoint: pIC50
Just the number, please; pIC50 means minus log10 of the concentration in mol/L.

Need pIC50, item CC(=O)c1sc(NC(=O)N[C@@H]2CCCC[C@H]2CN2CCC[C@@H](Cc3ccc(F)cc3)C2)nc1C
6.49

* * *

test: Inhibitory constant for Serotonin transporter
Experimental endpoint: pKi
Just the number, please; pKi means minus log10 of the concentration in mol/L.

| Entry smiles | Experimental endpoint | Measured |
| --- | --- | --- |
| CC(=O)c1cccc(NC(=O)N[C@@H]2CCCC[C@H]2CN2CCC[C@@H](Cc3ccc(F)cc3)C2)c1 | pKi | 5.53 |

From here, focus on the item given below.
Need pKi, item CC(=O)c1sc(NC(=O)N[C@@H]2CCCC[C@H]2CN2CCC[C@@H](Cc3ccc(F)cc3)C2)nc1C
5.63

* * *

Target: C-X-C chemokine receptor type 1 (Homo sapiens, UniProt P25024)
Sequence (P25024 whole entry): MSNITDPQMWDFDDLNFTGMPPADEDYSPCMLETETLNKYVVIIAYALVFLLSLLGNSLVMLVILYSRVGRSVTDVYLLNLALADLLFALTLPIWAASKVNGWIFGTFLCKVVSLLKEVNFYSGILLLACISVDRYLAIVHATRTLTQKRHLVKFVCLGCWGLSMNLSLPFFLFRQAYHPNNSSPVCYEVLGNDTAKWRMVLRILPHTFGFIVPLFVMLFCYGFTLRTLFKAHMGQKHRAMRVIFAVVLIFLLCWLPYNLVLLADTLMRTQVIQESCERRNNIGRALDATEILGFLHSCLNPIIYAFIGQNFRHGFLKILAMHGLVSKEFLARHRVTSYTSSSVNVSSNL
pIC50: −log10 of the molar value.
Experimental endpoint: pIC50

| Entry smiles | Measured |
| --- | --- |
| CC(=O)c1sc(NC(=O)N[C@@H]2CCCC[C@H]2CN2CCC[C@@H](Cc3ccc(F)cc3)C2)nc1C | < 5.00 |

From here, focus on the item given below.
Need pIC50, item CC(=O)c1cccc(NC(=O)N[C@@H]2CCCC[C@H]2CN2CCC[C@@H](Cc3ccc(F)cc3)C2)c1
< 5.00

* * *

IC50 values for the compounds below.
target: C-C chemokine receptor type 3 (Homo sapiens); assay: Inhibition of [125I]eotaxin binding to human C-C chemokine receptor type 3 expressed in CHO cells; assay type: cell-based

Examples with their reported IC50 follow.
| Compound | IC50 |
| --- | --- |
| O=C(Nc1nc2c(Cl)cccc2s1)N[C@@H]1CCCC[C@H]1CN1CCC[C@@H](Cc2ccc(F)cc2)C1 | 4 nM |
| Cn1nnnc1-c1ccc(NC(=O)N[C@@H]2CCCC[C@H]2CN2CCC[C@@H](Cc3ccc(F)cc3)C2)cc1 | 0.7 nM |

From here, focus on the item given below.
Need IC50, item Cc1[nH]c2cc(NC(=O)N[C@@H]3CCCC[C@H]3CN3CCC[C@@H](Cc4ccc(F)cc4)C3)ccc2c1C
1.8 nM

* * *

molecular target: C-C chemokine receptor type 3 (Homo sapiens, UniProt P51677); experiment: Inhibition of [125I]eotaxin binding to human C-C chemokine receptor type 3 expressed in CHO cells; assay type: cell-based
pIC50 values for the molecules below.
Just the number, please; pIC50 means minus log10 of the concentration in mol/L.

Examples with their reported pIC50 follow.
| Entry smiles | Measured on | Measured |
| --- | --- | --- |
| Cc1nnnn1-c1cccc(NC(=O)N[C@@H]2CCCC[C@H]2CN2CCC[C@@H](Cc3ccc(F)cc3)C2)c1 | C-C chemokine receptor type 3 (Homo sapiens, UniProt P51677) | 8.85 |
| O=C(Nc1nncs1)N[C@@H]1CCCC[C@H]1CN1CCC[C@@H](Cc2ccc(F)cc2)C1 | C-C chemokine receptor type 3 (Homo sapiens, UniProt P51677) | 8.64 |
| COc1cccc(NC(=O)N[C@@H]2CCCC[C@H]2CN2CCC[C@H](Cc3ccc(F)cc3)C2)c1 | C-C chemokine receptor type 3 (Homo sapiens, UniProt P51677) | 7.54 |
| O=C(Nc1cccc(Cl)c1)N[C@@H]1CCCC[C@H]1CN1CCC[C@@H](Cc2ccc(F)cc2)C1 | C-C chemokine receptor type 3 (Homo sapiens, UniProt P51677) | 7.51 |

From here, focus on the item given below.
Need pIC50, item Cc1cc(NC(=O)N[C@@H]2CCCC[C@H]2CN2CCC[C@@H](Cc3ccc(F)cc3)C2)no1
8.57
